meta.source: the supplement of paper PMC7156485

tested on: HCC1569; assay: cell number relative to DMSO (% of DMSO); higher = more cells (less growth inhibition / toxicity); conditions: concentration: 10 µM; 24 h;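 further: TDF denotes transformed human dermal fibroblasts of mesenchymal origin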
Task for the reader: assign each of the following compounds its reported cell number.
Numbers only.

• Nc1nc(N)c2nc(-c3ccccc3)c(N)nc2n1 = 98.6
• O=c1ccc2cc3ccoc3cc2o1 [7H-furo[3,2-g]chromen-7-one] = 96.4
• CCCn1c(=O)c2c(ncn2C)n(CCC)c1=O = 99.5
• CCCCCC(O)C=CC1C(O)CC2OC(=CCCCC(=O)[O-])CC21.[Na+] (stereo not drawn) = 101
• CC(=O)Oc1ccccc1C(=O)Nc1ncc([N+](=O)[O-])s1 [2-{[(5-nitro-1,3-thiazol-2-yl)amino]carbonyl}phenyl acetate] = 89.4
• CCCNC(C)C(=O)Nc1ccccc1C.Cl (stereo not drawn) [Prilocaine hydrochloride] = 103
• Clc1ccc(C(Cn2ccnc2)OCc2csc3c(Cl)cccc23)c(Cl)c1.O=[N+]([O-])O (stereo not drawn) = 88.9
• CCCCCC(O)C=CC1C(=O)C=CC1CC=CCCCC(=O)O (stereo not drawn) = 99.8

Look at each compound and report its cell number.
1. O.O.O=c1c(O)c(-c2ccc(O)c(O)c2)oc2cc(O)cc(O)c12
2. CS(=O)(=O)O.Cc1ccc(N(CC2=NCCN2)c2cccc(O)c2)cc1 [Phentolamine mesylate]
3. Fc1ccc(C2CCNCC2COc2ccc3c(c2)OCO3)cc1 (stereo not drawn)
4. O=C(Nc1ccc(N2CCOCC2)c(S(=O)(=O)Nc2ccccc2Cl)c1)c1ccncc1
5. NS(=O)(=O)c1cccc2c1c([N+](=O)[O-])cc1nc([O-])c([O-])nc12.[Na+].[Na+] [NBQX disodium]

Result ::
1. 90.7
2. 99
3. 97.7
4. 98.5
5. 104
